Molecular target: Recombinant EGFR (Homo sapiens, UniProt P00533)
Sequence (P00533 25-1210): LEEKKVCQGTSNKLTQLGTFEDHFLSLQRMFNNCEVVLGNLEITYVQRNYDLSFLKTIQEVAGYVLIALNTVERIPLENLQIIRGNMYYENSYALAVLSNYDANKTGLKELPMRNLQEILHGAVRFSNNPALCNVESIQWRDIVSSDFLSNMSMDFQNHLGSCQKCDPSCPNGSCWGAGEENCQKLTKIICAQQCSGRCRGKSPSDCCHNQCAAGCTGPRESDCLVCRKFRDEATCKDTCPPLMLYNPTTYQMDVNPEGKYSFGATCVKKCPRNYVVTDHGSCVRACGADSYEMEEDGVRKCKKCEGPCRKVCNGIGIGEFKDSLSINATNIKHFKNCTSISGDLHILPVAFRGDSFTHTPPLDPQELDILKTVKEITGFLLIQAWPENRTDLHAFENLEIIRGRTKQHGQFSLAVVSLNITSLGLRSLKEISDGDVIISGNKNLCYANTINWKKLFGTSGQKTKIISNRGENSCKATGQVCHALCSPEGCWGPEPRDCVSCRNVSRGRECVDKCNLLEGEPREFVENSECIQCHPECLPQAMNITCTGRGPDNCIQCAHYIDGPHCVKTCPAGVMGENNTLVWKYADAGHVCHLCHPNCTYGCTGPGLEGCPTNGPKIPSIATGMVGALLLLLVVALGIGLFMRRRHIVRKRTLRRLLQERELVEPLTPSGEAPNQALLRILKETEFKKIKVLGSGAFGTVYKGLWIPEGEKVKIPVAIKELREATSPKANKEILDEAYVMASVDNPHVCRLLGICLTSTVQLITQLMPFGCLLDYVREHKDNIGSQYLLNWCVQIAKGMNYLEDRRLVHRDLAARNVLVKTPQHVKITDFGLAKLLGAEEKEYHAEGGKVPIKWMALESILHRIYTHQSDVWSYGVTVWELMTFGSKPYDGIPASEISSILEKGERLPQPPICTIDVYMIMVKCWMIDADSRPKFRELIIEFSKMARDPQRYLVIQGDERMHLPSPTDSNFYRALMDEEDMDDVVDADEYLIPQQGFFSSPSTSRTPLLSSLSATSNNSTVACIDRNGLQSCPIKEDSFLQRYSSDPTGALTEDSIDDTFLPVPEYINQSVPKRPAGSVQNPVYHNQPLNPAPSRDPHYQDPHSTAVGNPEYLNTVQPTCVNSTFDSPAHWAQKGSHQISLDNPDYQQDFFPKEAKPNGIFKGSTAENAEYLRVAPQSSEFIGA
Experiment: EGFR binding affinity (LanthaScreen TR-FRET)
Settings: Kinase Tracer 199, 5 h incubation
pIC50: −log10 of the molar value.
Metric: pIC50

Compound	Result
COc1ccccc1C(=O)NCc1ccc(-c2nn(C3CCC(C)(O)CC3)c(N)c2C(N)=O)cc1 (single isomer, unassigned) [Example 27]	6.00 to 7.00
COc1ccccc1C(=O)NCc1ccc(-c2nn([C@H]3CCOC3)c(N)c2C(N)=O)cc1 [Example 83a]	5.00 to 6.00
COc1ccc(F)cc1C(=O)NCc1ccc(-c2nn(C3CCOCC3)c(N)c2C(N)=O)c(F)c1	< 5.00
COc1ccccc1C(=O)NCc1ccc(-c2nn(C(C)C)c(N)c2C(N)=O)cc1	6.00 to 7.00
COc1ccc(F)cc1C(=O)NCc1ccc(-c2nn([C@H](C)C(F)(F)F)c(N)c2C(N)=O)cc1 (single isomer, unassigned) [Example 163b]	5.00 to 6.00
COc1ccc(F)cc1C(=O)NCc1ccc(-c2nn([C@H]3CCOC3)c(N)c2C(N)=O)cc1	5.00 to 6.00
CCOC(=O)C1CCCC(n2nc(-c3ccc(CNC(=O)c4ccccc4OC)cc3)c(C(N)=O)c2N)C1 (single isomer, unassigned) [Example 58]	5.00 to 6.00
COc1ccccc1C(=O)NCc1ccc(-c2nn(C3CCC4(CC3)COC4)c(N)c2C(N)=O)cc1	6.00 to 7.00
COc1ccc(F)cc1C(=O)NCc1ccc(-c2nn(CC(F)(F)F)c(N)c2C(N)=O)c(F)c1	< 5.00
COc1ccc(F)cc1C(=O)NCc1ccc(-c2nn(C3CCOCC3)c(N)c2C(N)=O)cc1F	5.00 to 6.00
COc1ccccc1C(=O)NCc1ccc(-c2nn(C(C)C(F)(F)F)c(N)c2C(N)=O)cc1 (centres unmarked)	6.00 to 7.00
COc1ccccc1C(=O)NCc1ccc(-c2nn(C3CCCOC3)c(N)c2C(N)=O)cc1F (centres unmarked)	5.00 to 6.00
COc1ccccc1C(=O)NCc1ccc(-c2nn(-c3ccc(CO)cc3)c(N)c2C(N)=O)cc1	6.00 to 7.00
CCC(n1nc(-c2ccc(CNC(=O)c3cc(F)ccc3OC)cc2)c(C(N)=O)c1N)C(F)(F)F (centres unmarked)	5.00 to 6.00

Where do these numbers come from? They come from patent US11826351B2.
